Data credit: the supplement of paper PMC9112550

Kindly supply the reported shrunken log2 fold change values for the records listed here.
- Test system: Escherichia coli TOP10;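 also: peptides expressed intracellularly from a pBAD plasmid library in pooled LB shake-flask culture, induced with 0.3% L-arabinose, DNA abundance read by NGS, three biological replicates, DESeq2 with apeglm shrinkage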
- Test Summary: shrunken log2 fold change of peptide-encoding DNA abundance (4.5 h post-induction vs induction); higher = less antimicrobial activity (less host growth inhibition)
- Experimental Context: time post-induction: 4.5 h; library: site-saturation at positions 5, 18, 19, 20
Lab note: record just the number, no unit beside it.

Sample RRIRWRPPRLPRPRPRPCQPPRP — what was its shrunken log2 fold change? -0.118

Sample RRIRFRPPRLPRPRPRPRASPRP — what was its shrunken log2 fold change? 0.33

Sample RRIRCRPPRLPRPRPRPWYMPRP — what was its shrunken log2 fold change? -0.838

Sample RRIRWRPPRLPRPRPRPSIWPRP — what was its shrunken log2 fold change? -0.353

Sample RRIRCRPPRLPRPRPRPKVQPRP — what was its shrunken log2 fold change? 0.0235

Sample RRIRIRPPRLPRPRPRPMYYPRP — what was its shrunken log2 fold change? -0.32
